Data origin: patent US7700638B2

Target: GABA recognition site and the benzodiazepine modulatory unit (GABAA receptor complex), cerebral cortex membranes
Experiment: In vitro inhibition of 3H-flunitrazepam (3H-FNM) binding
Conditions: inhibition of specific binding of 3H-FNM (1 nM), cerebral cortex membranes from male Wistar rats, 40 min at 2° C.
Method: In vitro Inhibition of ^3H-flunitrazepam (^3H-FNM) Binding […] the benzodiazepine modulatory unit can selectively be labelled with ^3H-flunitrazepam. Preparations are performed at 0-4° C. unless otherwise indicated. […] The membrane preparation is thawed and centrifuged at 2° C. for 10 min at 27,000×g. […] Non-specific binding is determined using Clonazepam (1 μM, final concentration). […]
pIC50: −log10 of the molar value. Where a name gives a salt, the structure may show the parent alone.
Entries annotated with measured pIC50
reported-property: pIC50

molecule="FC(F)(F)c1cc(C#CCN2CCOCC2)c2c(c1)ncn2-c1ccccc1 [Example 80, trifluoroacetic acid salt]" reported_measurement=6.74
molecule=CCOC(=O)c1cc(-c2cccc(CN3CCN(C)CC3)c2)c2c(c1)ncn2-c1ccccc1 reported_measurement=7.72
molecule=FC(F)(F)c1cc(C#CCN2CC=CCC2)c2c(c1)ncn2-c1ccccc1 reported_measurement=7.32
molecule=OCc1cc(-c2cccc(OC(F)(F)F)c2)c2c(c1)ncn2-c1ccccc1 reported_measurement=7.92
molecule="CCN(CC)Cc1ccc(-c2cc(C#N)cc3ncn(-c4ccccc4)c23)cc1 [Example 41, trifluoroacetic acid salt]" reported_measurement=7.57
molecule=N#Cc1cccc(C=Nc2cc(C(F)(F)F)cc3ncn(-c4ccccc4)c23)c1 reported_measurement=7.74
molecule=OCc1cccc(-c2cc(C(F)(F)F)cc3ncn(-c4ccccc4)c23)c1 reported_measurement=7.52
molecule="CN(CCC#N)CCCCc1cc(C(F)(F)F)cc2ncn(-c3ccccc3)c12 [Example 88, trifluoroacetic acid salt]" reported_measurement=7.00

###

Molecular target: GABA recognition site and the benzodiazepine modulatory unit (GABAA receptor complex), cerebral cortex membranes
Assay: In vitro inhibition of 3H-flunitrazepam (3H-FNM) binding
Details: inhibition of specific binding of 3H-FNM (1 nM), cerebral cortex membranes from male Wistar rats, 40 min at 2° C.
Recorded IC50 by entry
reported-property: IC50 (nM)

molecule=Nc1cccc(-c2cc(C=NO)cc3ncn(-c4ccccc4)c23)c1 reported_property=IC50 reported_measurement=4.2
molecule=CCN(CC)C(=O)CCc1cc(C(F)(F)F)cc2ncn(-c3ccccc3)c12 reported_property=IC50 reported_measurement=38
molecule=COc1ccc(-c2cc(C#N)cc3ncn(-c4ccccc4)c23)cc1 reported_property=IC50 reported_measurement=38
molecule=COC(=O)C=Cc1cc(C(F)(F)F)cc2ncn(-c3ccccc3)c12 reported_property=IC50 reported_measurement=46
molecule=CCN(CC)C(=O)C=Cc1cc(C(F)(F)F)cc2ncn(-c3ccccc3)c12 reported_property=IC50 reported_measurement=20
